# System: Huh-3-1 cells
# EXPERIMENTAL_PROTOCOL: in vitro
# Format: cell-based
# EXPERIMENTAL_CONTEXT: Huh-3-1 replicon cells, three days, Cell Counting Kit-8; read-out: Cytotoxicity CC50
OUTCOME_MEASURE: CC50

[[record]]
compound = "CC(C)CCOc1ccc(C[C@H](NC(=O)[C@@H](/C=C/CCCCCCC(=O)CCCCC2CCCCC2)[C@](O)(CC(=O)O)C(=O)O)C(=O)O)cc1 [(38)]"
outcome_measure = "CC50"
readout_value = "> 1 µM"


Here's the next entry for you.
Record summary for CCCCCCCC(=O)CCCCCC/C=C/[C@H](C(=O)N[C@@H](Cc1ccc(OCC=C(C)C)cc1)C(=O)O)[C@@](O)(CC(=O)O)C(=O)O [Compound (51)] : reported CC50 = > 5 µM
